Origin of values: the supplement of paper PMC10949913

Tested on: CU-ACC1
EXPERIMENT NOTES: area under concentration-response curve (viability) (AUC (a.u.)); higher = less active
PROTOCOL CONDITIONS: 48 h
MEASURED ENDPOINT: area under concentration-response curve
Lab note: record just the number, no unit beside it.

Here is how some compounds turned out for area under concentration-response curve.
compound=CO[C@H]1/C=C\C=C(\C)C(=O)NC2=CC(=O)C(NCCN(C)C)=C(C[C@@H](C)C[C@H](OC)[C@H](O)[C@@H](C)/C=C(/C)[C@@H]1OC(N)=O)C2=O test_value=335
compound=Cn1c(=O)c2[nH]cnc2n(C)c1=O test_value=447
compound=C[C@@]1(C(=O)Nc2ccc(F)nc2)CCCN1c1nc(Nc2cc(C3CC3)[nH]n2)c2cccn2n1 test_value=505
compound=Nc1nc(N)c2nc(-c3cccc(O)c3)c(-c3cccc(O)c3)nc2n1 test_value=448
compound=CCCCCNC(=N)N/N=C/c1c[nH]c2ccc(OC)cc12 test_value=416

Input line: State, in one line, measured area under concentration-response curve of `COC/1=C/[C@@H]2[C@@H]3CC4=C(C(=C(OC)C=C4)O)[C@]2(CCN3C)CC1=O`
Output line: 457

Input line: State, in one line, measured area under concentration-response curve of `CC(C)C/1=C(NC2=C(C=N[N]2C1=O)C#N)\C3=CC=CC=C3`
Output line: 497

Input line: State, in one line, measured area under concentration-response curve of `CN(C)Cc1ccc([S+](=O)([O-])n2ccc(/C=C/C(=O)NO)c2)cc1`
Output line: 461

Input line: State, in one line, measured area under concentration-response curve of `Clc1cc(Cl)cc(CNc2ncncc2-c2ccc3c(c2)OCO3)c1`
Output line: 412

Input line: State, in one line, measured area under concentration-response curve of `CN\1N(C(=O)\C(=C1C)C(=O)NC2=CC=C(OC3=CC=NC4=C3C(=C[NH]4)C5=CC=CC=C5)C(=C2)F)C6=CC=C(F)C=C6`
Output line: 522

Input line: State, in one line, measured area under concentration-response curve of `CCN(C(=O)c1ccccc1OC)c1cc2c(cc1N1CCNC[C@H]1C)n(C)c(=O)n2C`
Output line: 544

Input line: State, in one line, measured area under concentration-response curve of `C[S+](=O)([O-])N1CCc2c(-c3cnc(N)nc3)nc(N3CCOCC3)nc21`
Output line: 403

Input line: State, in one line, measured area under concentration-response curve of `NC(=O)Nc1cc(-c2cccc(F)c2)sc1C(=O)N[C@H]1CCCNC1`
Output line: 397

---

Test system: NCI-H295R
EXPERIMENT NOTES: area under concentration-response curve (viability) (AUC (a.u.)); higher = less active
PROTOCOL CONDITIONS: 48 h
MEASURED ENDPOINT: area under concentration-response curve
Lab note: record just the number, no unit beside it.

molecule="O=C(O)CSCC(=O)NC1CCSC1=O (centres undefined)" target_under_test=NCI-H295R test_value=405
molecule=C[C@H](NC(=O)Cc1cc(F)cc(F)c1)C(=O)N[C@H](C(=O)OC(C)(C)C)c1ccccc1 target_under_test=NCI-H295R test_value=572
molecule=Nc1cccc(-c2cc3c(Oc4cccc(O)c4)ncnc3[nH]2)c1 target_under_test=NCI-H295R test_value=530
molecule=NC[C@H]1O[C@H](O[C@@H]2[C@H](O)[C@@H](O[C@H]3O[C@H](CO)[C@@H](O)[C@H](N)[C@H]3O)[C@H](N)C[C@@H]2N)[C@H](O)[C@@H](O)[C@@H]1O target_under_test=NCI-H295R test_value=520
molecule=CC(C)(N)c1ccc(-c2nc3ccccc3nc2-c2ccccc2)cc1 target_under_test=NCI-H295R test_value=354

Input line: State, in one line, measured area under concentration-response curve of `FC(F)(F)c1ccc(CNc2ccc(Cc3c[nH]c4ncc(Cl)cc34)cn2)cn1`
Output line: 582

Input line: State, in one line, measured area under concentration-response curve of `Cc1cc(CN2CCN(c3c(Br)cnc4[nH]c(-c5ccc(N6CCN(C)CC6)cc5)nc34)CC2)no1`
Output line: 425

Input line: State, in one line, measured area under concentration-response curve of `Cn1c(-c2ccccc2C(F)(F)F)nnc1C12CCC(c3noc(C4CC(F)(F)C4)n3)(CC1)CC2`
Output line: 546

Input line: State, in one line, measured area under concentration-response curve of `CN(C)c1nc(N(C)C)nc(N(C)C)n1`
Output line: 476
